Listing: EC50 of selected compounds
# tgt: Human FXRα Ligand Binding Domain (FXRα LBD) (Homo sapiens)
# Construct: polyhistidine (N); made in house; host or cells: E. coli BL21 (DE3), pRSET-A vector
# experimental_details: FXR Affinity Binding Assay: ligand mediated cofactor peptide (SRC-1 LCD2, 676-700) interaction, time resolved fluorescence
# assay_setup: FXRα LBD-APC / europium labeled SRC-1 peptide, TRF signal, at least 2 hours at room temperature; read-out: Activity (pEC50) (converted)
# Experimental: Determination of a ligand mediated cofactor peptide interaction to quantify ligand binding to the nuclear receptor Farnasoid X Receptor (FXR). […] Detection of the associated complex is measured by time resolved fluorescence (TRF). […] After equilibration, the time-resolved fluorescent signal is quantitated using a fluorescent plate reader. The affinity of the test compound is estimated from a plot of fluorescence versus concentration of test compound added. […]

// EC50 lookup, compound = CCN(c1ccc(OCc2c(-c3c(Cl)cccc3Cl)noc2C(C)C)cc1Cl)S(=O)(=O)c1ccc(C(=O)O)cc1 , result: < 100 nM

// EC50 lookup, compound = CC(C)c1onc(-c2c(Cl)cccc2Cl)c1COc1ccc(N(C)S(=O)(=O)c2cccc(C(=O)O)c2)c(Cl)c1 , result: < 100 nM

// EC50 lookup, compound = CC(C)c1onc(-c2ccccc2OC(F)(F)F)c1COc1ccc(NS(=O)(=O)c2cccc(C(=O)O)c2)c(Cl)c1 , result: 1020 to 10000 nM

// EC50 lookup, compound = Cc1cc(OCc2c(Cc3ccccc3Cl)noc2C(C)C)ccc1N(C)Cc1cccc(C(=O)O)c1 , result: 102 to 1000 nM

// EC50 lookup, compound = CCN(c1ccc(OCc2c(-c3c(Cl)cccc3Cl)noc2C(C)C)cc1C)S(=O)(=O)c1cccc(C(=O)OC)c1 , result: 102 to 1000 nM

// EC50 lookup, compound = CC(C)c1onc(-c2c(Cl)cccc2Cl)c1COc1ccc(N(C)S(=O)(=O)c2ccc(C(=O)O)cc2)c(Cl)c1 , result: < 100 nM

// EC50 lookup, compound = CCN(c1ccc(OCc2c(-c3c(Cl)cccc3Cl)noc2C(C)C)cc1C)S(=O)(=O)c1ccc(C(=O)O)cc1 , result: 102 to 1000 nM

----------
# tgt: Human FXRα Ligand Binding Domain (FXRα LBD) (Homo sapiens)
# Construct: polyhistidine (N); made in house; host or cells: E. coli BL21 (DE3), pRSET-A vector
# Sequence (Q96RI1 222-472 isoform Q96RI1-2): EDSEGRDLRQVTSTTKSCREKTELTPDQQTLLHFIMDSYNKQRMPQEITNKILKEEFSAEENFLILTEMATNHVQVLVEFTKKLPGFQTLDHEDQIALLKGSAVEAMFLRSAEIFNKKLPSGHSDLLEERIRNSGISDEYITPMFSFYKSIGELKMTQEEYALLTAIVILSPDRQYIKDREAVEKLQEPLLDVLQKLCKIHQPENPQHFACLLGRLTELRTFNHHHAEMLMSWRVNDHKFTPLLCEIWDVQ
# experimental_details: FXR Affinity Binding Assay: ligand mediated cofactor peptide (SRC-1 LCD2, 676-700) interaction, time resolved fluorescence
# assay_setup: FXRα LBD-APC / europium labeled SRC-1 peptide, TRF signal, at least 2 hours at room temperature; read-out: Activity (pEC50) (converted)
reported_metric: EC50

smiles_string: Cc1cc(OCc2c(-c3c(Cl)cccc3Cl)noc2C(C)C)ccc1OCc1cccc(C(=O)O)c1
EC50: 102 to 1000 nM

Result for CCN(c1ccc(OCc2c(-c3c(Cl)cccc3Cl)noc2C(C)C)cc1)S(=O)(=O)c1cccc(C(=O)O)c1 , tested on Human FXRα Ligand Binding Domain (FXRα LBD) (Homo sapiens), EC50: 102 to 1000 nM

Result for Cc1cc(OCc2c(-c3c(Cl)cccc3Cl)noc2C(C)C)ccc1N(C)Cc1cccc(C(=O)O)c1 , tested on Human FXRα Ligand Binding Domain (FXRα LBD) (Homo sapiens), EC50: < 100 nM

----------
# tgt: Human FXRα Ligand Binding Domain (FXRα LBD) (Homo sapiens)
# Construct: polyhistidine (N); made in house; host or cells: E. coli BL21 (DE3), pRSET-A vector
# Sequence (Q96RI1 222-472 isoform Q96RI1-2): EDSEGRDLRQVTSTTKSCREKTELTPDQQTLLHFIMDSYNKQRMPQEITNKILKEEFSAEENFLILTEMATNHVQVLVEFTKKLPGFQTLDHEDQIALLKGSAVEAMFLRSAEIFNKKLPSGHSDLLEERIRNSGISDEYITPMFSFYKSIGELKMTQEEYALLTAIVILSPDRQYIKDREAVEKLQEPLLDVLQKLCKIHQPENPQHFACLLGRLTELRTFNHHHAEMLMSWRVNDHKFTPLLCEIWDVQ
# experimental_details: FXR Affinity Binding Assay: ligand mediated cofactor peptide (SRC-1 LCD2, 676-700) interaction, time resolved fluorescence
# assay_setup: FXRα LBD-APC / europium labeled SRC-1 peptide, TRF signal, at least 2 hours at room temperature; read-out: Activity (pEC50) (converted)
Listing: EC50 of selected compounds

Example compounds with recorded EC50:
smiles_string: CCN(c1ccc(OCc2c(-c3c(Cl)cccc3Cl)noc2C(C)C)cc1)S(=O)(=O)c1cccc(C(=O)OC)c1
EC50: 1020 to 10000 nM
//
smiles_string: Cc1cc(OCc2c(-c3c(Cl)cccc3Cl)noc2C(C)C)ccc1CSc1cccc(C(=O)O)c1
EC50: < 100 nM
//
smiles_string: COC(=O)c1cccc(C(=O)Nc2ccc(OCc3c(-c4c(Cl)cccc4Cl)noc3C(C)C)cc2Cl)c1
EC50: 102 to 1000 nM
//
smiles_string: Cc1cc(OCc2c(-c3ccccc3OC(F)(F)F)noc2C(C)C)ccc1N(C)Cc1cccc(C(=O)O)c1
EC50: < 100 nM
//
smiles_string: Cc1cc(OCc2c(-c3ccccc3OC(F)(F)F)noc2C(C)C)ccc1N(C)S(=O)(=O)c1cccc(C(=O)O)c1
EC50: 102 to 1000 nM
//
smiles_string: CCN(c1ccc(OCc2c(-c3c(Cl)cccc3Cl)noc2C(C)C)cc1Cl)S(=O)(=O)c1cccc(C(=O)OC)c1
EC50: 1020 to 10000 nM
//
smiles_string: CC(C)c1onc(-c2c(Cl)cccc2Cl)c1COc1ccc(CNc2cccc(C(=O)O)c2)c(Cl)c1
EC50: 102 to 1000 nM
//
smiles_string: COC(=O)c1ccc(C(=O)Nc2ccc(OCc3c(-c4c(Cl)cccc4Cl)noc3C(C)C)cc2Cl)cc1
EC50: 102 to 1000 nM

Then there is this compound:
// EC50 lookup, compound = COC(=O)c1cccc(OCc2ccc(OCc3c(-c4ccccc4OC(F)(F)F)noc3C(C)C)cc2Cl)c1 , result: 102 to 1000 nM

----------
# tgt: Human FXRα Ligand Binding Domain (FXRα LBD) (Homo sapiens)
# Construct: polyhistidine (N); made in house; host or cells: E. coli BL21 (DE3), pRSET-A vector
# Sequence (Q96RI1 222-472 isoform Q96RI1-2): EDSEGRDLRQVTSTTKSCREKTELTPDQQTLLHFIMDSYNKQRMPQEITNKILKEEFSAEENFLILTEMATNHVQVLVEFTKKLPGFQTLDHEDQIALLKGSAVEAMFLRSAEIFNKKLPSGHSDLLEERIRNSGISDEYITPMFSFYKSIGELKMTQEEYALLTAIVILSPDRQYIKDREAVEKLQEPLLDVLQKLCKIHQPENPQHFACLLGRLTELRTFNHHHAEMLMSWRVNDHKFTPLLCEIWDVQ
# experimental_details: FXR Affinity Binding Assay: ligand mediated cofactor peptide (SRC-1 LCD2, 676-700) interaction, time resolved fluorescence
# assay_setup: FXRα LBD-APC / europium labeled SRC-1 peptide, TRF signal, at least 2 hours at room temperature; read-out: Activity (pEC50) (converted)
reported_metric: EC50

smiles_string: CC(C)c1onc(-c2ccccc2OC(F)(F)F)c1COc1ccc(COc2cccc(C(=O)O)c2)c(Cl)c1
tgt: Human FXRα Ligand Binding Domain (FXRα LBD) (Homo sapiens)
EC50: 102 to 1000 nM

// EC50 lookup, compound = Cc1cc(OCc2c(-c3c(Cl)cccc3Cl)noc2C(C)C)ccc1N(C)S(=O)(=O)c1cccc(C(=O)O)c1 , result: < 100 nM

// EC50 lookup, compound = CC(C)c1onc(-c2c(Cl)cccc2Cl)c1COc1ccc(NS(=O)(=O)c2ccc(C(=O)O)cc2)c(Cl)c1 , result: 1020 to 10000 nM

// EC50 lookup, compound = Cc1cc(OCc2c(-c3ccccc3OC(F)(F)F)noc2C(C)C)ccc1NC(=O)c1cccc(C(=O)O)c1 , result: 102 to 1000 nM

// EC50 lookup, compound = COC(=O)c1ccc(S(=O)(=O)Nc2ccc(OCc3c(-c4c(Cl)cccc4Cl)noc3C(C)C)cc2Cl)cc1 , result: 102 to 1000 nM

// EC50 lookup, compound = CC(C)c1onc(-c2c(Cl)cccc2Cl)c1COc1ccc(CSc2ccc(C(=O)O)cc2)c(Cl)c1 , result: 102 to 1000 nM

// EC50 lookup, compound = COC(=O)c1cccc(N(C)Cc2ccc(OCc3c(-c4c(Cl)cccc4Cl)noc3C(C)C)cc2Cl)c1 , result: 102 to 1000 nM
